- target_of_assay: GST-CIB1 : F-scrambled peptide (Homo sapiens, UniProt Q99828)
- Construct: made in house; host or cells: BL-21 plus RIL cells (E. coli)
- Sequence (Q99828 1-191): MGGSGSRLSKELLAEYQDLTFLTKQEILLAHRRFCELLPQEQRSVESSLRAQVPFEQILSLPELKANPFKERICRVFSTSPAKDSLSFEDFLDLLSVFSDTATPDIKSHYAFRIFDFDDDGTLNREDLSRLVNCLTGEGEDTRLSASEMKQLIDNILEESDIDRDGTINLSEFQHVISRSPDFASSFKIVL
- protocol_summary: FP scrambled-peptide counter screen, 384-well format
- Type: binding
- condition_notes: F-scrambled peptide; *: Curve in opposite direction
property_label: 384-well COUNTERSCREEN Confirm?

Worked cases, answers included:
- compound: "COc1ccc(CNC(=O)c2nc(S(=O)(=O)Cc3ccccc3)ncc2Cl)cc1.O=C(O)C(F)(F)F"
  observed_value: "YES"
- compound: "O=C1C(I)=CC(=C(c2cc(I)c([O-])c(I)c2)c2ccccc2C(=O)[O-])C=C1I.[Na+].[Na+]"
  observed_value: "YES"
- compound: "Cc1ccccc1S(=O)(=O)Nc1cnccc1C(=O)Nc1nc(-c2ccccc2)cs1.O=C(O)C(F)(F)F"
  observed_value: "YES"
- compound: "CC(C)=CCC[C@]1(C)C=Cc2c(O)c3c(c(CC=C(C)C)c2O1)O[C@]12C(=C[C@@H]4CC1C(C)(C)O[C@@]2(C/C=C(/C)C(=O)O)C4=O)C3=O"
  observed_value: "YES"
- compound: "O=C(O)C1=NC(C(=O)O)CC(/C=C/N2c3cc(O)c(OC4OC(CO)C(O)C(O)C4O)cc3CC2C(=O)O)=C1 (stereo not shown)"
  observed_value: "YES"

What does the data say about its 384-well COUNTERSCREEN Confirm?? Entry: O=C(O)C(F)(F)F.O=c1c2ccccc2nc2sc(NS(=O)(=O)c3ccc4c(c3)CCC4)nn12
YES

What does the data say about its 384-well COUNTERSCREEN Confirm?? Entry: O=C(Nc1nc(-c2ccccc2)cs1)c1ccncc1NS(=O)(=O)c1cccc2cccnc12.O=C(O)C(F)(F)F
YES

What does the data say about its 384-well COUNTERSCREEN Confirm?? Entry: N#Cc1cnc(NS(=O)(=O)c2ccc(NC(=O)Cc3ccc(Cl)c(Cl)c3)cc2)s1.O=C(O)C(F)(F)F
YES

Every entry's value here was drawn from paper PMC11249646.
